Assay: small-molecule microarray binders of probe aShh, primary screen, biochemical, biotinylated probe, 635/667 nm fluorescence (AID 1114);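 further: probe is biotin-labelled aShh protein from a stem cell growth factor screen; measures binding of labelled protein to compounds printed on the slide; score merges feature fluorescence at 667 nm with signal-to-noise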
Conditions: higher = more signal
Label scheme for composite z-score: lower than 0.03 is N, 0.03 and above is Y.

COC(=O)[C@@]1(Cc2ccccc2)N=C(c2ccc(OCCCO)cc2)O[C@H]1c1ccccc1 | Y

Attention now turns to another entry.
Task item: Does COc1ccc(-c2cc3c(c(-c4ccc(Oc5ccccc5)cc4)n2)[Si](C(C)C)(C(C)C)OC3)cn1 have a reported composite z-score of at least 0.03?
Reply: N

* * *

Molecular target: Neurogenic locus notch homolog protein 3 (Homo sapiens)
Experiment: NOTCH3 binders on small-molecule microarray, primary screen, biochemical, 635/667 nm fluorescence (AID 1096)
Settings: NOTCH3 binding, 635 nm fluorescence, higher = more signal
Experimental Endpoint: composite z-score
In your answer, state the number alone without any accompanying words.

Known composite z-score results, listed for orientation:
COc1ccc([Si](C)(C)[C@H]2[C@H](CCO)O[C@@]3(C(=O)N(Cc4ccc(N(C=O)c5ccccc5)cc4)c4ccccc43)[C@@H]2C)cc1 | 0.033
C=CCN1C(=O)[C@]2(O[C@H](CCn3cc([C@H](O)c4ccccc4)nn3)[C@@H]([Si](C)(C)c3ccc(OC)cc3)[C@@H]2C)c2cc(N3CCC3=O)ccc21 | 0.803
C[C@H]1NC(=O)[C@@]23C(=O)N[C@@H](Cc4ccccc4)C2[C@H](C)[C@@]2(C)O[C@H]2C3/C=C/C/C=C\CNC(=O)[C@@H]2CCCN2C1=O (stereo partly specified) | 1.01
CC(C)C(CO)N1C(=O)[C@@H]2C3C(=O)OCCC/C=C\[C@H]3OC23C=CCN(CCN2CCOCC2)C(=O)[C@@H]13 (stereo partly specified) | 0.0008
Cc1ccccc1C(O)C1C=CC2C(=O)N(c3ccccc3)C(=O)C2N1Nc1ccc(C(C)C)cc1 (stereo unspecified) | 1.07

Kindly consider the entry below.
Task item: Which composite z-score value belongs to COCCOC(=O)N1C(=O)[C@@]2(c3cc(C#CC4(O)CCCCCC4)ccc31)[C@H](c1ccc(OCCO)cc1)N1[C@H](c3ccccc3)[C@H](c3ccccc3)OC(=O)[C@H]1[C@@H]2C(=O)N1CCN(c2ncccn2)CC1 ?
Reply: 1.08

* * *

Test: basal RPMI8226 mitochondrial membrane potential changes, profiling panel, cell-based, JC-1 fluorescence, 24 h, 100 nL compound (AID 1169); further: test concentration not given here
Details: RPMI8226 myeloma, JC-1 mitochondrial potential fluorescence, higher = more signal
Experimental Endpoint: z-score
In your answer, state the number alone without any accompanying words.

Known z-score results, listed for orientation:
COC(=O)[C@@]1(Cc2ccc(F)cc2)[C@H]2c3cc(C(=O)N(C)C)n(Cc4cc(F)c(F)c(F)c4)c3C[C@H]2CN1C(=O)c1ccccc1 | -0.803
COc1ccc(C#Cc2ccc3c(c2)[C@]2(C(=O)N3)[C@H](C(=O)NC[C@H](O)c3ccccc3)[C@H]3C(=O)O[C@H](c4ccccc4)[C@H](c4ccccc4)N3[C@@H]2c2ccc(O)cc2)cc1 | -1.11
COC(=O)[C@@]1(Cc2ccc(OC)cc2)[C@H]2c3cc(C(=O)N4CCCC4)n(Cc4ccc(O)c(OC)c4)c3C[C@H]2CN1C(=O)c1ccccc1 | -0.221

Kindly consider the entry below.
Task item: Which z-score value belongs to COc1ccc(CCNC(=O)[C@@]2(Sc3ccc(C)cc3)CC(=O)N(C3Cc4ccccc4C3)[C@@H]2c2ccc(CO)cc2I)cc1 ?
Reply: -0.597
